The reported numbers originate from the supplement of paper PMC12669032.

system: Lactobacillus gasseri; assay: growth AUC relative to DMSO control (median of replicates) (fraction); higher = more growth (less inhibition), active = hit call of the paper; conditions: 20 µM; 24 h
Field: growth AUC. Provide a value for each of the molecules that follow.
# print the numeric value only

For the molecule `Cc1ccccc1C(=O)Nc1cccc(OC(C)C)c1` , what growth AUC is on record? 1.06

Consider next the molecule `CCOP(=S)(OCC)SCn1c(=O)oc2cc(Cl)ccc21` in the same way. 0.918

Consider next the molecule `CCOCN(C(=O)CCl)c1c(C)cccc1CC` in the same way. 1.03

Consider next the molecule `CN(C)C(=O)Nc1cccc(OC(=O)NC(C)(C)C)c1` in the same way. 0.934

Consider next the molecule `CC(=O)O.NC(N)=NCCCCCCCCNCCCCCCCCN=C(N)N` in the same way. 0.874

Consider next the molecule CCOP(=S)(OCC)SCS(=O)C(C)(C)C (stereo unspecified) in the same way. 0.959

Consider next the molecule COC(C)(C)CCCC(C)C/C=C/C(C)=C/C(=O)OC(C)C (stereo unspecified) in the same way. 1.04

Consider next the molecule CC(C)=CC1C(C(=O)OCc2cccc(Oc3ccccc3)c2)C1(C)C (mixture of isomers) in the same way. 0.767

Consider next the molecule `C[N+](C)(C)CCCl.[Cl-]` in the same way. 0.944

Consider next the molecule CC(C)C(C(=O)OC(C#N)c1cccc(Oc2ccccc2)c1)c1ccc(Cl)cc1 (stereo unspecified) in the same way. 0.9

Consider next the molecule `N#Cc1sc2c(=O)c3ccccc3c(=O)c=2sc1C#N` in the same way. 1.01

###

test system: Akkermansia muciniphila; assay: growth AUC relative to DMSO control (median of replicates) (fraction); higher = more growth (less inhibition), active = hit call of the paper; conditions: 20 µM; 24 h;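 active = AUC reduced over 20% with Padj below 0.05 in at least 2 of 3 replicates; inactive = otherwise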
Choose one outcome from this list and give only that: active, inactive

Dear all, I need the recorded test outcome for `CC(C)N1C(=O)N(c2ccccc2)CSC1=NC(C)(C)C` , thank you. inactive

Consider next the compound `CCc1cccc(C)c1N(C(=O)CCl)[C@@H](C)COC` in the same way. inactive

Consider next the compound `O.[Br-].[Br-].c1cc[n+]2c(c1)-c1cccc[n+]1CC2` in the same way. inactive

Consider next the compound `CC(C)N(C(=O)COc1nnc(C(F)(F)F)s1)c1ccc(F)cc1` in the same way. active

Consider next the compound `C=CCOC(=O)C(C)(C)OC(=O)c1cc(-n2c(=O)cc(C(F)(F)F)n(C)c2=O)ccc1Cl` in the same way. inactive

Consider next the compound `Nc1cc(Cl)cc(C(=O)O)c1Cl` in the same way. inactive

Consider next the compound `CC(C)(C)[C@@H](O)[C@H](Oc1ccc(Cl)cc1)n1cncn1` in the same way. inactive

Consider next the compound `COC(=O)C(Cl)Cl` in the same way. inactive

Consider next the compound CCC1(C(=O)NC(C)c2ccc(Cl)cc2)C(C)C1(Cl)Cl (stereo unspecified) in the same way. inactive

Consider next the compound `CSC1=N[C@@](C)(c2ccccc2)C(=O)N1Nc1ccccc1` in the same way. inactive

Consider next the compound `COP(=S)(OC)Oc1cc(Cl)c(Cl)cc1Cl` in the same way. inactive

###

system: Bifidobacterium longum subsp. longum; experiment: growth AUC relative to DMSO control (median of replicates) (fraction); higher = more growth (less inhibition), active = hit call of the paper; conditions: 20 µM; 24 h;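 active = AUC reduced over 20% with Padj below 0.05 in at least 2 of 3 replicates; inactive = otherwise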
Choose one outcome from this list and give only that: 1 for active, -1 for inactive

Dear all, I need the recorded test outcome for `CO/N=C(/C(=O)OC)c1ccccc1CO/N=C(\C)c1cccc(C(F)(F)F)c1` , thank you. -1

Consider next the compound `CC(C)NC(=O)N1CC(=O)N(c2cc(Cl)cc(Cl)c2)C1=O` in the same way. -1

Consider next the compound CC(C)(C)C(O)C(Oc1ccc(Cl)cc1)n1cncn1 (centres undefined) in the same way. -1

Consider next the compound `CON(C)C(=O)Nc1ccc(Cl)c(Cl)c1` in the same way. -1

Consider next the compound `CCCOc1nn(C(=O)[N-]S(=O)(=O)c2ccccc2C(=O)OC)c(=O)n1C.[Na+]` in the same way. -1

Consider next the compound `O=C(O)C(F)(F)C(F)(F)C(F)(F)C(F)(F)C(F)(F)C(F)(F)C(F)(F)F` in the same way. -1

Consider next the compound `O=[N+]([O-])c1cc(C(F)(F)F)c(Cl)c([N+](=O)[O-])c1Nc1ncc(C(F)(F)F)cc1Cl` in the same way. 1

Consider next the compound CC(C)=CC1C(C(=O)OCc2coc(Cc3ccccc3)c2)C1(C)C (centres undefined) in the same way. -1

Consider next the compound `Cc1c(COC(=O)[C@@H]2[C@H](/C=C(\Cl)C(F)(F)F)C2(C)C)cccc1-c1ccccc1` in the same way. -1

###

test system: Lactobacillus gasseri; test: growth AUC relative to DMSO control (median of replicates) (fraction); higher = more growth (less inhibition), active = hit call of the paper; conditions: 20 µM; 24 h
assay.metric: growth AUC
# print the numeric value only

For the compound `CNC(=O)O/N=C(\SC)C(=O)N(C)C` , what growth AUC is on record? 1.09

Consider next the compound `O=[N+]([O-])c1cc(C(F)(F)F)c(Cl)c([N+](=O)[O-])c1Nc1ncc(C(F)(F)F)cc1Cl` in the same way. 0.807

Consider next the compound CC(Oc1ccc(Oc2ccc(C(F)(F)F)cn2)cc1)C(=O)O (stereo not given) in the same way. 0.839

Consider next the compound `Cc1cccc(C)c1N` in the same way. 1.02

Consider next the compound O=C(NC(=O)c1c(F)cccc1F)Nc1cc(Cl)c(OC(F)(F)C(F)C(F)(F)F)cc1Cl (stereo not given) in the same way. 0.989

Consider next the compound `CC1(C)CN=C(NN=C(/C=C/c2ccc(C(F)(F)F)cc2)/C=C/c2ccc(C(F)(F)F)cc2)NC1` in the same way. 0.935

Consider next the compound `CCOP(=S)(OCC)Oc1cc(Cl)c(Br)cc1Cl` in the same way. 0.868

Consider next the compound CNC1=C(c2cccc(C(F)(F)F)c2)C(=O)C(c2ccccc2)O1 (stereo not given) in the same way. 0.985

Consider next the compound `O=C1C=C(N(Cc2ccc(Cl)nc2)CC(F)F)CO1` in the same way. 1

Consider next the compound `O=C(O)c1ccccc1C(=O)Nc1cccc2ccccc12` in the same way. 0.979

Consider next the compound `Fc1ccc(Oc2ccnc3cc(Cl)cc(Cl)c23)cc1` in the same way. 0.984

Consider next the compound `CO/C=C(/C(=O)OC)c1ccccc1COc1cccc(C(F)(F)F)n1` in the same way. 0.975

Consider next the compound CCCC(Cn1cncn1)c1ccc(Cl)cc1Cl (stereo not given) in the same way. 1.05

Consider next the compound C=CCOC(Cn1ccnc1)c1ccc(Cl)cc1Cl.O=S(=O)(O)O (stereo not given) in the same way. 0.962

Consider next the compound `O=C(Nc1ccccc1-c1ccc(Cl)cc1)c1cccnc1Cl` in the same way. 1.08

Consider next the compound `CCCOCCN(C(=O)CCl)c1c(CC)cccc1CC` in the same way. 0.927

Consider next the compound `CNC(=O)/C=C(\C)OP(=O)(OC)OC` in the same way. 1.03

Consider next the compound CCOP(=O)(N=C1SCC(C)S1)OCC (stereo not given) in the same way. 0.985

Consider next the compound `N#Cc1cc(Br)c(O)c(Br)c1` in the same way. 0.903

Consider next the compound `CCC(C)(C)c1ccc(O)cc1` in the same way. 0.957

###

Field: growth AUC. Provide a value for each of the molecules that follow.
tested on: Odoribacter splanchnicus; test: growth AUC relative to DMSO control (median of replicates) (fraction); higher = more growth (less inhibition), active = hit call of the paper; conditions: 20 µM; 24 h
# print the numeric value only

For the molecule CNC1=C(c2cccc(C(F)(F)F)c2)C(=O)C(c2ccccc2)O1 (stereo not given) , what growth AUC is on record? 1.07

Consider next the molecule `O=[N+]([O-])c1cc(C(F)(F)F)c(Cl)c([N+](=O)[O-])c1Nc1ncc(C(F)(F)F)cc1Cl` in the same way. 1.02

Consider next the molecule O=C(NC(=O)c1c(F)cccc1F)Nc1cc(Cl)c(OC(F)(F)C(F)C(F)(F)F)cc1Cl (stereo not given) in the same way. 0.993

Consider next the molecule `Cc1cc(Cl)ccc1OCC(=O)O.O.[Na]` in the same way. 1.03

Consider next the molecule `COCCN(C(=O)CCl)c1c(C)cccc1C` in the same way. 0.965

Consider next the molecule COCC(=O)N(c1c(C)cccc1C)C(C)C(=O)OC (stereo not given) in the same way. 1.04

Consider next the molecule `CON(C)C(=O)Nc1ccc(Br)c(Cl)c1` in the same way. 0.998

Consider next the molecule `C=CCOC(=O)C(C)(C)OC(=O)c1cc(-n2c(=O)cc(C(F)(F)F)n(C)c2=O)ccc1Cl` in the same way. 0.913

Consider next the molecule `CCNc1nc(NC(C)(C)C)nc(SC)n1` in the same way. 0.876

Consider next the molecule CCOP(=S)(OCC)Oc1ccc(S(C)=O)cc1 (stereo not given) in the same way. 0.977
